System: SN-12KI
Procedure summary: MTT-microculture tetrazolium assay, growth inhibition of renal SN-12KI cells
Format: cell-based
Run parameters: Homo sapiens, 144 h; Renal cell line SN-12KI; 6 days at 37° C.; 0.5% DMSO
Experimental endpoint: IC50 (µM)
Dear colleague, please return just the value in µM, with no unit written.

Q: Return value of IC50 for input CS(=O)(=O)NCCN[C@@H]1CCN2CCc3c(oc4ccccc34)[C@@H]2C1 (relative stereo) , no commentary.
Result: 6.3
